- Species: Rattus norvegicus
- ASSAY PROCEDURE: Hydrolytic activity against esterase with hepatic microsomes relative to E16-1,2
- MEASUREMENT CONTEXT: Liver
ENDPOINT NAME: RHA (%)

Look over these answered cases.
COC(=O)C[C@@H]1Cc2cc(O)ccc2[C@H]2CC[C@]3(C)[C@@H](O)CC[C@H]3[C@H]12 : 30
CCCCOC(=O)[C@H]1C[C@H](O)[C@@]2(C)CC[C@@H]3c4ccc(O)cc4CC[C@H]3[C@H]12 : 7
CCOC(=O)C[C@@H]1Cc2cc(O)ccc2[C@H]2CC[C@]3(C)[C@@H](O)CC[C@H]3[C@H]12 : 70
C[C@]12CC[C@@H]3c4ccc(O)cc4C[C@@H](C(=O)OCCF)[C@H]3[C@@H]1CC[C@@H]2O : 0
CCOC(=O)C[C@H]1Cc2cc(O)ccc2[C@H]2CC[C@]3(C)[C@@H](O)CC[C@H]3[C@H]12 : 0
COC(=O)C[C@H]1C[C@]2(C)[C@@H](O)CC[C@H]2[C@@H]2CCc3cc(O)ccc3[C@@H]12 : 106

[a] CC(C)OC(=O)[C@H]1C[C@H](O)[C@@]2(C)CC[C@@H]3c4ccc(O)cc4CC[C@H]3[C@H]12
[b] COC(=O)CC[C@H]1C[C@H](O)[C@@]2(C)CC[C@@H]3c4ccc(O)cc4CC[C@H]3[C@H]12
input: Could you tell me which of these two has the smaller RHA figure? First: a Second: b Select an item and report its label.
output: a

[I] COC(=O)[C@H]1CC(O)[C@@]2(C)CC[C@@H]3c4ccc(O)cc4CC[C@H]3[C@H]12 (stereo not given in full)
[II] COC(=O)C[C@H]1C[C@H](O)[C@@]2(C)CC[C@@H]3c4ccc(O)cc4CC[C@H]3[C@H]12
input: Higher RHA between I and II ? Select an item and report its label.
output: II

[a] CCOC(=O)[C@H]1C[C@H](O)[C@@]2(C)CC[C@@H]3c4ccc(O)cc4CC[C@H]3[C@H]12
[b] CCOC(=O)CC[C@H]1C[C@H](O)[C@@]2(C)CC[C@@H]3c4ccc(O)cc4CC[C@H]3[C@H]12
[c] CCOC(=O)C[C@H]1C[C@H](O)[C@@]2(C)CC[C@@H]3c4ccc(O)cc4CC[C@H]3[C@H]12
input: Order field: RHA | Direction: descending (largest first) API: response body holds the labels in the requested order.
output: b, c, a
(b: 674%, c: 71%, a: 2.3%)

###

- SYSTEM: Estrogen receptor (Mus musculus) (UniProt O08537+P19785)
- Sequence (O08537 whole entry, looked up): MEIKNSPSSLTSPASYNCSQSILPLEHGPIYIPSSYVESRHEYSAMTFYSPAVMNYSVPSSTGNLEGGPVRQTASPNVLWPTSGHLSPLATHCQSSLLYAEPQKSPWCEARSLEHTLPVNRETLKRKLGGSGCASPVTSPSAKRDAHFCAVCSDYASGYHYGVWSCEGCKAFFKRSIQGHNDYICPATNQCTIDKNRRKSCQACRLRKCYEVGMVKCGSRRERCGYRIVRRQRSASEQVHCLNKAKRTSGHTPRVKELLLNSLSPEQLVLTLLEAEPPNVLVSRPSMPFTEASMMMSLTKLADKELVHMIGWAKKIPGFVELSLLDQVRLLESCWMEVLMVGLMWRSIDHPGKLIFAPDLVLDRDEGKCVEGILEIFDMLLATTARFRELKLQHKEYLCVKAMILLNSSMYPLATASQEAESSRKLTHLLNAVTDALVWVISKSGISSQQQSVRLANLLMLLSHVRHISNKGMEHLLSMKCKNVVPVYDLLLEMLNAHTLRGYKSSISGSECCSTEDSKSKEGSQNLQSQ
- Sequence (P19785 whole entry, looked up): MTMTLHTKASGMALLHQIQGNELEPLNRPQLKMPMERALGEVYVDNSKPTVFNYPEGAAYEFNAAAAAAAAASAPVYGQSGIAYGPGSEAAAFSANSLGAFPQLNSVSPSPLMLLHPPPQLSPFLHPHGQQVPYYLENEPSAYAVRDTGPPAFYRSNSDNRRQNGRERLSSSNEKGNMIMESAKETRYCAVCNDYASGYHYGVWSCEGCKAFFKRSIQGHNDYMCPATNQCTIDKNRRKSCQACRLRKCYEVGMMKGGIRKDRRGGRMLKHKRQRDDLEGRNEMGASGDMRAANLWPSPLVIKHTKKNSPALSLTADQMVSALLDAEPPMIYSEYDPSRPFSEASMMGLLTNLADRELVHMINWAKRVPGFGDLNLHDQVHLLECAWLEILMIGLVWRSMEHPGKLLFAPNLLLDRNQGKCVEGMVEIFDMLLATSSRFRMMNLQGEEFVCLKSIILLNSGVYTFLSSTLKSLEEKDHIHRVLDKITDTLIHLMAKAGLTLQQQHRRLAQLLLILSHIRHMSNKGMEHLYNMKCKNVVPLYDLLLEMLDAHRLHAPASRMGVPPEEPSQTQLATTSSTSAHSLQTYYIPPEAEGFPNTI
- ASSAY PROCEDURE: Vaginal activity relative to estradiol (E2)
- Format: functional
ENDPOINT NAME: Vaginal activity

C[C@]12CC[C@@H]3c4ccc(O)cc4CC[C@H]3[C@@H]1C[C@@H](C(=O)OCCF)[C@@H]2O : 0.42
CCOC(=O)[C@H]1C[C@H](O)[C@@]2(C)CC[C@@H]3c4ccc(O)cc4CC[C@H]3[C@H]12 : 0.42
COC(=O)[C@H]1CC(O)[C@@]2(C)CC[C@@H]3c4ccc(O)cc4CC[C@H]3[C@H]12 (stereo partly specified) : 0.38
COC(=O)C[C@H]1C[C@]2(C)[C@@H](O)CC[C@H]2[C@@H]2CCc3cc(O)ccc3[C@@H]12 : 0.42
COC(=O)[C@@H]1Cc2cc(O)ccc2[C@H]2CC[C@]3(C)[C@@H](O)CC[C@H]3[C@@H]21 : 1
CCOC(=O)[C@@H]1Cc2cc(O)ccc2[C@H]2CC[C@]3(C)[C@@H](O)CC[C@H]3[C@@H]21 : 0.44

###

- SYSTEM: Estrogen receptor (Rattus norvegicus) (UniProt P06211+Q62986)
- ASSAY PROCEDURE: In vivo uterotropic activity at 100 ug subcutaneous dose in immature rats as ng estradiol dose for equivalent effect
- Type: functional, organism-based
ENDPOINT NAME: Uterotropic activity

Look over these answered cases.
COC(=O)[C@H]1CC(O)[C@@]2(C)CC[C@@H]3c4ccc(O)cc4CC[C@H]3[C@H]12 (stereo partly specified) : 0
CCOC(=O)[C@@H]1Cc2cc(O)ccc2[C@H]2CC[C@]3(C)[C@@H](O)CC[C@H]3[C@@H]21 : 4
COC(=O)[C@@H]1Cc2cc(O)ccc2[C@H]2CC[C@]3(C)[C@@H](O)CC[C@H]3[C@@H]21 : 10.5

[1] CCOC(=O)[C@H]1C[C@H](O)[C@@]2(C)CC[C@@H]3c4ccc(O)cc4CC[C@H]3[C@H]12
[2] C[C@]12CC[C@@H]3c4ccc(O)cc4CC[C@H]3[C@@H]1C[C@@H](C(=O)OCCF)[C@@H]2O
[3] COC(=O)C[C@H]1C[C@]2(C)[C@@H](O)CC[C@H]2[C@@H]2CCc3cc(O)ccc3[C@@H]12
input: Write the entries in order, lowest recorded Uterotropic activity first. API: response body holds the labels in the requested order.
output: 1, 2, 3

###

- SYSTEM: Estrogen receptor beta (Homo sapiens) (UniProt Q92731)
- Sequence (Q92731 whole entry, the tested form may be a part): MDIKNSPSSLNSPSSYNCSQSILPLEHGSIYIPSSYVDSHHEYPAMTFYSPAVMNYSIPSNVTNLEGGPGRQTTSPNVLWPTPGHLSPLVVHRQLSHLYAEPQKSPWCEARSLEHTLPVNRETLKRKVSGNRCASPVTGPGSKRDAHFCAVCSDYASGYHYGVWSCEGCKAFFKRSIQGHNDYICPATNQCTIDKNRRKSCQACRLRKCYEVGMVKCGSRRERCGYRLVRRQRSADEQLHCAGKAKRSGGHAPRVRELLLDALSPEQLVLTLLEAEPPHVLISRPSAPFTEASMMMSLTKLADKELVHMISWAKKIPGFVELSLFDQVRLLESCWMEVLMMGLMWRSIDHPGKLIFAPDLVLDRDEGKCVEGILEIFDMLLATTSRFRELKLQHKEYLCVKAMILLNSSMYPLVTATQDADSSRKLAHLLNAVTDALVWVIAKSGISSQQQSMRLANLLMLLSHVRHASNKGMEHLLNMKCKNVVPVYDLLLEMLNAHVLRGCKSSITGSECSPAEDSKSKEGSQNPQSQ
- ASSAY PROCEDURE: Binding of […] to human estrogen receptor beta ligand binding domain expressed in Escherichia coli
ENDPOINT NAME: Activity

Look over these answered cases.
CCOC(=O)[C@@H]1Cc2cc(O)ccc2[C@H]2CC[C@]3(C)[C@@H](O)CC[C@H]3[C@@H]21 : 9
CCOC(=O)C[C@H]1C[C@]2(C)[C@@H](O)CC[C@H]2[C@@H]2CCc3cc(O)ccc3[C@@H]12 : 70

[A] C[C@]12CC[C@@H]3c4ccc(O)cc4CC[C@H]3[C@@H]1CC[C@@H]2O
[B] CCOC(=O)CC[C@H]1C[C@]2(C)[C@@H](O)CC[C@H]2[C@@H]2CCc3cc(O)ccc3[C@@H]12
[C] CCOC(=O)[C@H]1C[C@H](O)[C@@]2(C)CC[C@@H]3c4ccc(O)cc4CC[C@H]3[C@H]12
[D] CCOC(=O)[C@@H]1C[C@H]2[C@@H]3CCc4cc(O)ccc4[C@H]3CC[C@]2(C)[C@H]1O
input: Order field: Activity | Direction: descending (largest first) API: response body holds the labels in the requested order.
output: A, B, C, D

###

- SYSTEM: Estrogen receptor (Rattus norvegicus) (UniProt P06211+Q62986)
- ASSAY PROCEDURE: Uterotropic activity relative to estradiol (E2)
- Type: functional, tissue-based
- MEASUREMENT CONTEXT: Uterus
ENDPOINT NAME: Uterotropic activity

Look over these answered cases.
COC(=O)[C@@H]1Cc2cc(O)ccc2[C@H]2CC[C@]3(C)[C@@H](O)CC[C@H]3[C@@H]21 : 0.11
CCOC(=O)[C@@H]1Cc2cc(O)ccc2[C@H]2CC[C@]3(C)[C@@H](O)CC[C@H]3[C@@H]21 : 0.04

[a] C[C@]12CC[C@@H]3c4ccc(O)cc4CC[C@H]3[C@@H]1C[C@@H](C(=O)OCCF)[C@@H]2O
[b] COC(=O)C[C@H]1C[C@]2(C)[C@@H](O)CC[C@H]2[C@@H]2CCc3cc(O)ccc3[C@@H]12
input: Could you tell me which of these two has the smaller Uterotropic activity figure? First: a Second: b Select an item and report its label.
output: a
(a: 0.02, b: 0.07)

###

- SYSTEM: Estrogen receptor (Mus musculus) (UniProt O08537+P19785)
- ASSAY PROCEDURE: In vivo vaginal activity in ovariectomised mice at 50 ng vaginal dose as pg estradiol dose for equivalent effect
ENDPOINT NAME: Vaginal activity

COC(=O)[C@H]1CC(O)[C@@]2(C)CC[C@@H]3c4ccc(O)cc4CC[C@H]3[C@H]12 (stereo partly specified) : 19
C[C@]12CC[C@@H]3c4ccc(O)cc4CC[C@H]3[C@@H]1C[C@@H](C(=O)OCCF)[C@@H]2O : 21
COC(=O)[C@@H]1Cc2cc(O)ccc2[C@H]2CC[C@]3(C)[C@@H](O)CC[C@H]3[C@@H]21 : 50
CCOC(=O)[C@@H]1Cc2cc(O)ccc2[C@H]2CC[C@]3(C)[C@@H](O)CC[C@H]3[C@@H]21 : 22
COC(=O)C[C@H]1C[C@]2(C)[C@@H](O)CC[C@H]2[C@@H]2CCc3cc(O)ccc3[C@@H]12 : 21
CCOC(=O)[C@H]1C[C@H](O)[C@@]2(C)CC[C@@H]3c4ccc(O)cc4CC[C@H]3[C@H]12 : 21

###

- Organism: Rattus norvegicus
- ASSAY PROCEDURE: Hydrolytic activity against esterase with hepatic microsomes relative to E16-1,2
- MEASUREMENT CONTEXT: Liver
ENDPOINT NAME: RHA (%)

Look over these answered cases.
CCCOC(=O)[C@@H]1Cc2cc(O)ccc2[C@H]2CC[C@]3(C)[C@@H](O)CC[C@H]3[C@@H]21 : 0
CCOC(=O)[C@@H]1Cc2cc(O)ccc2[C@H]2CC[C@]3(C)[C@@H](O)CC[C@H]3[C@@H]21 : 0
CCCCOC(=O)[C@@H]1Cc2cc(O)ccc2[C@H]2CC[C@]3(C)[C@@H](O)CC[C@H]3[C@@H]21 : 0

[I] CCCOC(=O)[C@H]1C[C@H](O)[C@@]2(C)CC[C@@H]3c4ccc(O)cc4CC[C@H]3[C@H]12
[II] CCOC(=O)CC[C@H]1C[C@]2(C)[C@@H](O)CC[C@H]2[C@@H]2CCc3cc(O)ccc3[C@@H]12
[III] COC(=O)CC[C@H]1C[C@]2(C)[C@@H](O)CC[C@H]2[C@@H]2CCc3cc(O)ccc3[C@@H]12
[IV] CCOC(=O)[C@@H]1C[C@H]2[C@@H]3CCc4cc(O)ccc4[C@H]3CC[C@]2(C)[C@H]1O
[V] C[C@]12CC[C@@H]3c4ccc(O)cc4CC[C@H]3[C@@H]1[C@@H](C(=O)OCCF)C[C@@H]2O
input: Order field: RHA | Direction: descending (largest first) API: response body holds the labels in the requested order.
output: II, IV, III, I, V
